B1: TPR t1 (parent)
chain: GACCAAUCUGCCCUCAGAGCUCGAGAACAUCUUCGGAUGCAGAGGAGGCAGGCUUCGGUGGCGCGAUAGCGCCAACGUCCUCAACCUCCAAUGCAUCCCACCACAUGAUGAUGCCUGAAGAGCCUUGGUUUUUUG

Variants of: B1
measurement_description: polymerase ribozyme fitness, log enrichment relative to wild type (log ratio); higher = more active; in vitro selection for triplet polymerase activity
Record form. Attribute: polymerase ribozyme fitness (log ratio). Fill in for each entry.

Consider the reported polymerase ribozyme fitness (log ratio) for these variants:
mutation_key | polymerase ribozyme fitness (log ratio)
C62U U129G | -1.28
U38A A111U | -4.52
C15G A90C | -3.94
C8U C70G | -1.58
C3G G47U G48C C82G C123U | -1.92

Quick one: give me polymerase ribozyme fitness (log ratio) for each item below, same order please.
1. C73U A121U U133A
2. C53A G113C
3. C12A A27G G93A

2.19
-2.28
-5.16

List the reported polymerase ribozyme fitness (log ratio) of each variant below.
1. C11G G71A U106G
2. A27G C56A C72U G120U
3. A6G C97U U112A

1: -2.48; 2: -2.12; 3: 1.48

Taken from the RNAGym collection of RNA variant scans (doi:10.1073/pnas.2313332121).
